system: Klebsiella pneumoniae; test: Antibacterial activity against Klebsiella pneumoniae HK11750/08 after 48 hrs by broth microdilution method; format: functional; details: HK11750/08, 48 h
Each item that follows carries a reported MIC.
propertyMeasured: MIC

>>> observedmeasurement("O=[N+]([O-])c1cc(-c2nnn(CSc3nnnn3Cc3ccccc3)n2)cc([N+](=O)[O-])c1")
"> 125 µM"
>>> observedmeasurement("COc1ccc(Cn2nnnc2-c2cc([N+](=O)[O-])cc([N+](=O)[O-])c2)cc1")
"125 µM"
>>> observedmeasurement("O=[N+]([O-])c1cc(-c2nnn(CSc3nnnn3-c3ccccc3)n2)cc([N+](=O)[O-])c1")
"> 125 µM"
>>> observedmeasurement("O=[N+]([O-])c1cc(-c2nnn(Cc3cccc(Cl)c3)n2)cc([N+](=O)[O-])c1")
"> 500 µM"
>>> observedmeasurement("O=[N+]([O-])c1cc(-c2nnnn2Cc2ccccc2)cc([N+](=O)[O-])c1")
"125 µM"
>>> observedmeasurement("O=[N+]([O-])c1cc(-c2nnn(Cc3ccccc3F)n2)cc([N+](=O)[O-])c1")
"> 500 µM"

---

test system: Candida albicans; test: Antifungal activity against Candida albicans ATCC 44859 after 48 hrs by broth microdilution method; assay type: functional; settings: ATCC 44859, 48 h
propertyMeasured: MIC

>>> observedmeasurement("Cn1nnnc1SCn1nnc(-c2cc([N+](=O)[O-])cc([N+](=O)[O-])c2)n1")
"> 500 µM"
>>> observedmeasurement("O=[N+]([O-])c1cc(-c2nnn(Cc3ccccc3F)n2)cc([N+](=O)[O-])c1")
"> 500 µM"
>>> observedmeasurement("O=[N+]([O-])c1cc(-c2nnn(Cc3ccc(Br)cc3)n2)cc([N+](=O)[O-])c1")
"> 500 µM"
>>> observedmeasurement("O=[N+]([O-])c1cc(-c2nnn(CSc3nnnn3Cc3ccccc3)n2)cc([N+](=O)[O-])c1")
"> 125 µM"
>>> observedmeasurement("CCCCCCCCCCCCn1nnc(-c2cc([N+](=O)[O-])cc([N+](=O)[O-])c2)n1")
"> 250 µM"
>>> observedmeasurement("O=[N+]([O-])c1cc(-c2nnnn2Cc2ccccc2)cc([N+](=O)[O-])c1")
"62.5 µM"

---

Each item that follows carries a reported log10 of MIC99.
test system: Mycobacterium tuberculosis; assay: Antimycobacterial activity against Mycobacterium tuberculosis H37Rv CNCTC My 331/88 after 14 days by micromethod; assay type: functional; settings: H37Rv CNCTC My 331/88, 336 h
propertyMeasured: log10 of MIC99 (log10 of the value in µM)

>>> observedmeasurement("COc1ccc(-n2nnnc2SCn2nnc(-c3cc([N+](=O)[O-])cc([N+](=O)[O-])c3)n2)cc1")
-0.60
>>> observedmeasurement("O=[N+]([O-])c1cc(-c2nnn(Cc3c(F)cccc3Cl)n2)cc([N+](=O)[O-])c1")
-0.30
>>> observedmeasurement("Cn1nnc(-c2cc([N+](=O)[O-])cc([N+](=O)[O-])c2)n1")
1.51
>>> observedmeasurement("COc1ccc(-n2nnnc2Sc2cc([N+](=O)[O-])cc([N+](=O)[O-])c2)cc1")
0.00
>>> observedmeasurement("O=[N+]([O-])c1cc(-c2nnn(CSc3nnnn3-c3ccc(Cl)cc3)n2)cc([N+](=O)[O-])c1")
-1.52
>>> observedmeasurement("O=[N+]([O-])c1cc(-c2nnn(CCSc3nnnn3-c3ccc(Br)cc3)n2)cc([N+](=O)[O-])c1")
-0.30
>>> observedmeasurement("O=[N+]([O-])c1cc(-c2nnn(CCCCSc3nnnn3-c3ccc(Cl)c(Cl)c3)n2)cc([N+](=O)[O-])c1")
-0.60
>>> observedmeasurement("O=[N+]([O-])c1cc(-c2nnn(CSc3nnnn3-c3ccc(Cl)c(Cl)c3)n2)cc([N+](=O)[O-])c1")
-1.52
>>> observedmeasurement("O=[N+]([O-])c1cc(-c2nnn(Cc3cccc(F)c3)n2)cc([N+](=O)[O-])c1")
0.00
>>> observedmeasurement("COc1cccc(Cn2nnc(-c3cc([N+](=O)[O-])cc([N+](=O)[O-])c3)n2)c1")
0.00

---

tested on: Mycobacterium kansasii; test: Antimycobacterial activity against Mycobacterium kansasii CNCTC My 235/80 after 7 days by micromethod; type: functional; details: CNCTC My 235/80, 168 h
propertyMeasured: MIC99

>>> observedmeasurement("O=[N+]([O-])c1cc(-c2nnn(Cc3ccc(F)c(F)c3)n2)cc([N+](=O)[O-])c1")
"1 µM"
>>> observedmeasurement("O=[N+]([O-])c1cc(-c2nnn(CSc3nnnn3-c3ccc(Cl)cc3)n2)cc([N+](=O)[O-])c1")
"0.5 µM"
>>> observedmeasurement("O=[N+]([O-])c1cc(-c2nnn(Cc3cccc(Br)c3)n2)cc([N+](=O)[O-])c1")
"1 µM"
